Please go through the items and note down their TGI.
Tested on: OVCAR-5 ovarian
PROTOCOL SUMMARY: NCI tumour cell line growth inhibition, 48 h

Provide each entry's TGI from the list below.
1. CS(=O)(=O)c1ccc(Oc2cc(F)cc(C#N)c2)c2c1[C@H](O)C(F)(F)C2
2. N=c1n(Cc2ccccc2)c(N)cc(=O)n1Cc1ccccc1
3. CN(C)C1=NC2=S(SC(Nc3ccccc3)=N2)S1 (configuration not stated)
4. COc1ccc2c(c1)CCN1CCCc3ccc(OC)cc3C21 (configuration not stated)
5. COC(=O)CCc1ccc2c(c1)CC1(Cc3ccccc3C1)C2
6. COc1cc(Nc2nc3cc(C(F)(F)F)ccc3nc2-c2ccccc2)cc(OC)c1OC

Response line:
1. > 100 µM
2. 14.9 µM
3. > 100 µM
4. > 100 µM
5. > 100 µM
6. > 100 µM

Provide each entry's TGI from the list below.
1. COc1ccc(OC)c(/C=C2\COc3ccc(O)c(O)c3C2=O)c1
2. CN=C(N)/N=C(\N)Nc1cc2ccccc2c2ccccc12
3. CCOC(=O)N/N=C(\Cc1ccc([N+](=O)[O-])cc1)OCC
4. NCCCNCCSSC/C=C\CSSCCNCCCN
5. N#CCCSC(=S)C1CCCC1=N (configuration not stated)

Response line:
6.48 µM
33 µM
> 100 µM
> 100 µM
> 100 µM

Prompt line: Request - read-out TGI | tested on OVCAR-5 ovarian | compound Nc1cccc2c1C1=NNC(=O)CC1C2 (configuration not stated)
Response line: > 100 µM

###

Please go through the items and note down their GI50.
Test system: HCT-116 colon
PROTOCOL SUMMARY: NCI tumour cell line growth inhibition, 48 h
Where a SMILES comes first, the peptide text is derived from it. [ ]: non-standard residue; d: D form. The star is where a group is joined. NMeF = CN[C@@H](Cc1ccccc1)C(=O)O; NMeV = CN[C@H](C(=O)O)C(C)C; Boc = CC(C)(C)OC(=O)*; OBn = c1ccc(CO*)cc1

Examples with answers:
[[record]]
compound = "CC(C)[C@@H](C(=O)N1CCC[C@H]1C(=O)OCc1ccccc1)N(C)C(=O)[C@H](C(C)C)N(C)C(=O)[C@H](Cc1ccccc1)N(C)C(=O)[C@H](NC(=O)OC(C)(C)C)C(C)C (Boc-[dV][NMeF][NMeV][NMeV]P-OBn)"
property_name = "GI50"
measurement = "19600 nM"

[[record]]
compound = "CSC1=Nc2c(c(C)c(C)n2COC(CO)CO)C2=NC(=O)CC(C)N12 (stereo not drawn)"
property_name = "GI50"
measurement = "> 100000 nM"

[[record]]
compound = "COc1cccc(Cn2c(-c3nonc3NC(C)=O)nc3ccccc32)c1"
property_name = "GI50"
measurement = "4940 nM"

[[record]]
compound = "N#Cc1c(N)nc(NCc2ccccc2)c(C#N)c1-c1ccccc1Cl"
property_name = "GI50"
measurement = "16300 nM"

[[record]]
compound = "C=Cc1cc(OC)c2c(c1)c(=O)oc1c2cc(OC)c2c(O)ccc(C3OC(C)C(O)C(C)(O)C3O)c21 (stereo not drawn)"
property_name = "GI50"
measurement = "0.308 nM"

[[record]]
compound = "O=C1/C(=C/c2ccccc2F)CN(C(=O)C(Cl)Cl)C/C1=C\\c1ccccc1F"
property_name = "GI50"
measurement = "131 nM"

[[record]]
compound = "CCC[CH2][Sn]1([CH2]CCC)[O]CC(CN2CCOCC2)[O]1 (stereo not drawn)"
property_name = "GI50"
measurement = "8840 nM"

[[record]]
compound = "C/C(=C\\CCc1ccsc1)CC/C=C(\\C)CCCN1CCC(CO)CC1"
property_name = "GI50"
measurement = "1670 nM"

[[record]]
compound = "Nc1ccc(-c2nc3ccccc3o2)cc1S"
property_name = "GI50"
measurement = "15100 nM"

[[record]]
compound = "O=C(Cc1ccccc1)NC(c1ccc(Cl)cc1)c1c(O)ccc2ccccc12 (stereo not drawn)"
property_name = "GI50"
measurement = "2170 nM"


Provide each entry's GI50 from the list below.
1. COc1ccc(CCN2CCC(Nc3nc4ccccc4n3Cc3ccc(F)cc3)CC2)cc1
2. CC1OC(n2c3ccccc3c3c4c(c5c6ccccc6[nH]c5c32)C(=O)N(CCN2CCOCC2)C4=O)CC(O)C1O (stereo not drawn)
3. Cc1ccc(-c2nc(N)c(C#N)c3c2CCOc2c-3ccc3ccccc23)cc1

Response line:
1: 1210 nM; 2: 1330 nM; 3: 210 nM
